Molecular target: T1, human Tigit extracellular domain recombinant protein hTigit-his (self-produced) (human, UniProt Q495A1 22-141)
T1 construct: extracellular domain; Self-produced; used in the KD analysis of Embodiment 4; also called human Tigit recombinant protein; not shown: his tag
T1 sequence (looked up): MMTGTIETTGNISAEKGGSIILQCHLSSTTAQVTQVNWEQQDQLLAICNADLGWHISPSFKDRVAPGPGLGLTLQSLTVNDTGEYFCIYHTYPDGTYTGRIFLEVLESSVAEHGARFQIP
Experiment: BLI (ForteBIO QKe), hTigit-his on anti-Penta-HIS sensor, antibody in solution
reported endpoint: Kd
I'd appreciate it if you wrote the number followed by its unit.

Below are worked cases with known answers.
[
  {
    "binder": "Tigit-5 mouse monoclonal antibody (antibody, V domains shown, Mouse monoclonal antibody from hybridoma) VH: QVQLQQPGAELVRPGASVKLSCKASGYSFTSYWMNWVKQRPGQGLEWIGMIRPSDSETRLNQMFKDKATLTVDKSSSTAYMQLSSPTSDDSAVYYCAGIHDYGHGAYWGQGTLVTVSA VL: DIQMIQSPASLSVSVGETVTITCRASENIYSNLAWYQQKQGKSPQLLVYAASHLPDGVPSRFSGSGSGTQYSLKINSLQSEDFGSYYCQHFWGTPRTFGGGTKLEIKR",
    "Kd": "60.5 pM"
  },
  {
    "binder": "3Tigit-12 mouse monoclonal antibody (antibody, V domains shown, Mouse monoclonal antibody from hybridoma) VH: QVQLQQSGAELVRPGTSVKMSCKAAGYTFTNYWIGWVKQRPGHGLEWIGDIYPGGGYTNYDEKFKGKATLTADTSSRTAYMQLSSLTSEDSAIYHCVNGGYGSTYGYFDVWGAGTTVTVSS VL: DIVMSQSPSSLPVSVGEKVTMSCKSSQSLLFSSDQKNYLAWYQQKPGQSPKLLIYWASTRESGVPDRLTGSGSGTDFTLTISSVKAEDLAVYYCQQYHKYPFTFGGGTKLEIKR",
    "Kd": "119 pM"
  },
  {
    "binder": "3Tigit-29 mouse monoclonal antibody (antibody, V domains shown, Mouse monoclonal antibody from hybridoma) VH: EVQLQQSGPELVKPGASVKISCKASGYTFTDYNMHWVKQSLGKSLEWIGYVNSFNGNTGYSQKFKSKVTLTVDRSSRTAYMDLRSLTSEDSAVFYCARSSRGGFAYWGQGTLVTVSA VL: QIVLTQSPAIMSASPGEKVTMTCSASSSVSYMHWYQQKSGTSPKRWIYDTSKLASGVPARFSGSVSGTSYSLTISSMEAEDAATYYCQQWSSNSLTFGAGTKLELKR",
    "Kd": "155 pM"
  }
]

// next item, Kd requested
Query string: Recorded Kd of 3Tigit-16 mouse monoclonal antibody (antibody, V domains shown, Mouse monoclonal antibody from hybridoma) VH: EVQLQQSGPELVKPGASVKMSCKASGFTFTDYFMDWVKQSRGASFEWIGRLNPNNGRTSYNQKFKGKATLTVDKSSSTAYMELNSLTSEDSAVYYCARGDLGRWYFDVWGAGTTVTVSS VL: QIVLTQSPAIMSASPGEKVTMTCSASSSVSYMHWYQQKSGTSPKRWIYDTSKLASGVPTRFSGSGSGTSYSLTISSMEAEDAASYFCQQWSSNSLTFGAGTKLELKR , please.
Result string: 202 pM
